- TEST: Microsome stability assay, human liver microsomes
- Format: in vitro ADME
- RUN PARAMETERS: human, liver microsomes (pooled from multiple donors); formic acid salt; 37° C., 0.5 mg/ml microsomal protein, NADPH regenerating system; read-out: Human Liver Microsome (HLM) T1/2
READOUT TYPE: half-life at 1 NM (min)

compound="CCc1cc(-c2ccc(NS(=O)(=O)c3ccccc3Cl)cc2C)cc2cnc(N[C@H]3CC[C@H](N)CC3)nc12 [Compound 3]" value_measured=47.5

====

pIC50: −log10 of the molar value.
Quick record of pIC50 values for IRE1a (Homo sapiens, UniProt O75460).
READOUT TYPE: pIC50

compound=CCc1cc(-c2ccc(NS(=O)(=O)c3ccccc3Cl)c(F)c2)cc2cnc(N[C@@H]3CC[C@@H](N)C3)nc12 value_measured="≥ 8.30"
compound=COc1nc(NS(=O)(=O)c2ccccc2Cl)ccc1-c1cc(C)c2nc(N[C@H]3CC[C@H](N)CC3)ncc2c1 value_measured="≥ 8.30"
compound=CC(C)c1cc(-c2cc(NS(=O)(=O)c3ccccc3Cl)nn2C)cc2cnc(N[C@H]3CC[C@H](N)CC3)nc12 value_measured="≥ 8.30"
compound=CCc1nc(NS(=O)(=O)c2ccccc2Cl)ccc1-c1cc(CC)c2nc(NC34CCC(N(C)C)(CC3)CC4)ncc2c1 value_measured="≥ 8.30"
compound=CCc1cc(-c2cc(F)c(NS(=O)(=O)c3ccccc3Cl)c(F)c2)cc2cnc(N[C@H]3CC[C@H](N)CC3)nc12 value_measured="≥ 8.30"
compound=Cc1nc(NS(=O)(=O)c2ccccc2Cl)ncc1-c1ccc2nc(N[C@H]3CC[C@H](N)CC3)ncc2c1 value_measured="≥ 8.30"
compound="CCc1cc(-c2ccc(NS(=O)(=O)c3ccccc3Cl)c(F)c2)cc2cnc(N[C@H]3CC4C[C@H](N)CC4C3)nc12 (some centres unmarked)" value_measured="≥ 8.30"
compound=CCc1cc(-c2ccc(NS(=O)(=O)c3cccc(C)c3)nc2C)cc2cnc(N[C@H]3CC[C@H](N)CC3)nc12 value_measured="≥ 8.30"
compound=CCc1cc(-c2ccc(NS(=O)(=O)c3ccccc3Cl)c(F)c2)cc2cnc(N[C@@H]3CC[C@H](N)[C@H](C)C3)nc12 value_measured="≥ 8.30"
compound=CCc1cc(-c2ccc(NS(=O)(=O)c3ccccc3Cl)nc2C)cc2cnc(N[C@H]3CC[C@H](N)CC3)nc12.O=CO value_measured="≥ 8.30"
compound=Cc1cc2nc(N[C@H]3CC[C@H](N)CC3)ncc2cc1-c1ccc(NS(=O)(=O)c2ccccc2Cl)nc1C value_measured="≥ 8.30"
compound=COc1nc(NS(=O)(=O)c2ccccc2Cl)ccc1-c1cc(C(F)(F)F)c2nc(N[C@H]3CC[C@H](N)CC3)ncc2c1 value_measured="≥ 8.30"
compound=CCc1cc(-c2cnc(NS(=O)(=O)c3ccccc3Cl)cc2OC)cc2cnc(N[C@H]3CC[C@H](N)CC3)nc12 value_measured="≥ 8.30"
compound=CCc1cc(-c2ccc(NS(=O)(=O)c3ccccc3Cl)nn2)cc2cnc(N[C@H]3CC[C@H](N)CC3)nc12.O=CO value_measured="≥ 8.30"
compound=CCc1cc(-c2ccc(NS(=O)(=O)c3ccccc3Cl)nc2OC)cc2cnc(N[C@H]3CC[C@H](O)CC3)nc12 value_measured="7.30 to 8.30"
compound=CCc1cc(-c2cc(F)c(NS(=O)(=O)c3ccccc3Cl)cc2OC)cc2cnc(N[C@H]3CC[C@H](N(C)C)CC3)nc12 value_measured="≥ 8.30"
compound=CCc1cc(-c2ccc(NS(=O)(=O)c3ccccc3Cl)cc2)cc2cnc(N[C@H]3CC[C@H](N)CC3)nc12.O=CO value_measured="≥ 8.30"
compound=CCc1cc(-c2ccc(NS(=O)(=O)c3ccccc3Cl)c(C)c2C)cc2cnc(N[C@H]3CC[C@H](N)CC3)nc12.O=CO value_measured="7.30 to 8.30"
compound=N[C@H]1CC[C@H](Nc2ncc3cc(-c4ncc(NS(=O)(=O)c5ccccc5Cl)cc4F)ccc3n2)CC1 value_measured="≥ 8.30"
compound=CCc1cc(-c2ccc(NS(=O)(=O)c3ccccc3C)nc2C)cc2cnc(N[C@H]3CC[C@H](N)CC3)nc12 value_measured="≥ 8.30"
compound=COc1nc(NS(=O)(=O)c2ccccc2Cl)ccc1-c1ccc2nc(N[C@H]3CC[C@H](N)CC3)ncc2c1C value_measured="7.30 to 8.30"
compound=COc1nc(NS(=O)(=O)c2ccccc2Cl)ccc1-c1cc2cnc(N[C@H]3CC[C@H](N)CC3)nc2cc1C value_measured="≥ 8.30"
compound=CCc1cc2nc(N[C@H]3CC[C@H](N)CC3)ncc2cc1-c1ccc(NS(=O)(=O)c2ccccc2Cl)nc1OC value_measured="≥ 8.30"
compound=Cn1nc(NS(=O)(=O)c2ccccc2Cl)cc1-c1ccc2nc(N[C@H]3CC[C@H](N)CC3)ncc2c1 value_measured="7.30 to 8.30"
compound=COc1nc(NS(=O)(=O)c2ccccc2Cl)c(F)cc1-c1cc(C)c2nc(N[C@H]3CC[C@@H](N)CC3)ncc2c1 value_measured="≥ 8.30"
compound=CCc1cc(-c2ccc(NS(=O)(=O)c3ccccc3Cl)nc2)cc2cnc(N[C@H]3CC[C@H](N)CC3)nc12.O=CO value_measured="≥ 8.30"

Cited source for all entries: patent US20180346446A1
